# assayedTarget: Sodium-dependent serotonin transporter (Homo sapiens)
# Sequence (P31645 whole entry): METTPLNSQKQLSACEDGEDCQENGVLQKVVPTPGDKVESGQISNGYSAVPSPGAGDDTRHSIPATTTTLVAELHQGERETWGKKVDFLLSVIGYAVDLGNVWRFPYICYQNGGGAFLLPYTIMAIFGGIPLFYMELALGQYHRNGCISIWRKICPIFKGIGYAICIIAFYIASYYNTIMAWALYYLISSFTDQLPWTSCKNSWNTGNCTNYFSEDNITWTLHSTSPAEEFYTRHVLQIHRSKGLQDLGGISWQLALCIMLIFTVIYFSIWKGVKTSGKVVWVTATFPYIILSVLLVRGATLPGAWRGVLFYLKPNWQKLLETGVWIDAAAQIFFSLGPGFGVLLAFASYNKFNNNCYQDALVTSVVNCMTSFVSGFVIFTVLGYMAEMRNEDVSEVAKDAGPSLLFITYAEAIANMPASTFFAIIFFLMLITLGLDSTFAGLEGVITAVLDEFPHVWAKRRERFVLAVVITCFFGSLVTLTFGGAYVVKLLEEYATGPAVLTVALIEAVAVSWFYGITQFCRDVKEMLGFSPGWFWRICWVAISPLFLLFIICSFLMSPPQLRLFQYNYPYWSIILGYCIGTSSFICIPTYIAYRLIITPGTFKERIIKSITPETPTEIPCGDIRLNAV
# experimentalProtocol: Displacement of [3H]citalopram from human recombinant SERT expressed in BacMam virus-transduced cells by scintillation proximity assay
# Type: cell-based
Criterion: Ki strictly less than 1 nM. Met: class 1. Not met: class 0.

A selection of reference data follows.
Clc1ccc([C@]23CNC[C@H]2[C@H]3COCC2CC2)cc1Cl (racemic) | class 0
CCOC[C@H]1[C@@H]2CNC[C@@]21c1ccc(Cl)c(Cl)c1 (relative stereo) | class 1
FC(F)(F)COC[C@@H]1[C@H]2CNC[C@]21c1ccc(Cl)c(Cl)c1 (stereo in doubt) | class 1
CCCOC[C@@H]1[C@H]2CNC[C@]21c1ccc(Cl)c(Cl)c1 (stereo in doubt) | class 1
COCC[C@H]1[C@]2(C)CNC[C@]12c1ccc(Cl)c(Cl)c1 (racemic) | class 1
Cc1cnc([C@H]2[C@@H]3CNC[C@@]32c2ccc(Cl)c(Cl)c2)o1 (racemic) | class 0
CCOCC[C@H]1[C@@H]2CNC[C@]12c1ccc(Cl)c(Cl)c1 (racemic) | class 1
Cc1csc(C[C@H]2[C@@H]3CNC[C@@]32c2ccc(Cl)c(Cl)c2)n1 (stereo in doubt) | class 1

Request: I'd appreciate it if you could check whether OCC[C@H]1[C@@H]2CNC[C@]12c1ccc(Cl)c(Cl)c1 (racemic) has Ki smaller than 1 nM.
Response: class 0

Request: I'd appreciate it if you could check whether Fc1ccc(OC[C@H]2[C@@H]3CNC[C@@]32c2ccc(Cl)c(Cl)c2)cc1 (racemic) has Ki smaller than 1 nM.
Response: class 0

Request: I'd appreciate it if you could check whether CN(C)C[C@H]1[C@@H]2CNC[C@@]21c1ccc(Cl)c(Cl)c1 (racemic) has Ki smaller than 1 nM.
Response: class 0

Request: I'd appreciate it if you could check whether Clc1ccc([C@]23CNC[C@H]2[C@@H]3COCC2CC2)cc1Cl (stereo in doubt) has Ki smaller than 1 nM.
Response: class 1

Request: I'd appreciate it if you could check whether Clc1ccc([C@@]23CNC[C@@H]2[C@H]3COC2CCC2)cc1Cl (stereo in doubt) has Ki smaller than 1 nM.
Response: class 0

Request: I'd appreciate it if you could check whether Clc1ccc([C@@]2(COCC3CC3)[C@@H]3CNC[C@@H]32)cc1Cl has Ki smaller than 1 nM.
Response: class 1

Request: I'd appreciate it if you could check whether FC(F)(F)COC[C@H]1[C@@H]2CNC[C@@]21c1ccc(Cl)c(Cl)c1 (stereo in doubt) has Ki smaller than 1 nM.
Response: class 0

Request: I'd appreciate it if you could check whether CCC(C)OCC[C@]1(c2ccc(Cl)c(Cl)c2)[C@@H]2CNC[C@@H]21 (mixture of isomers) has Ki smaller than 1 nM.
Response: class 1

Request: I'd appreciate it if you could check whether CC(C)OCC[C@]1(c2ccc(Cl)c(Cl)c2)[C@@H]2CNC[C@@H]21 has Ki smaller than 1 nM.
Response: class 1

Origin of values: ChEMBL document CHEMBL1157620
